Source listed as PubChem BioAssay.

Tested on: TRPC4 beta (transient receptor potential cation channel C4), mouse
Experiment: TRPC4 cation channel opening, retest – cell-based, Fluo4 calcium, HEK293 TRPC4beta/mu-opioid, duplicates, 10 µM, confirmation (AID 2426)
Details: Fluo4 calcium fluorescence, at 10 µM
Activity calls are given as the source filed them.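 Rule for the calls: active = fluorescence ratio normalized to control raised more than 50% in primary screen plus both repeat runs; inactive = the rest.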
// one of true (1) = active, false (0) = inactive, no free text

Reference set (5 entries):
What call does the record list for `COc1ccccc1CC(=O)N1CCN(S(=O)(=O)c2ccccc2)CC1` ? false (0)

What call does the record list for `NC(=O)N/N=C1\c2ccccc2-c2c(C(N)=O)cccc21` ? false (0)

What call does the record list for COc1ccc(Nc2nc(NCC3CCCO3)c3ccccc3n2)c(OC)c1 (stereo not drawn) ? false (0)

What call does the record list for `COCCn1c(SCc2cc(C(C)=O)ccc2OC)nc2cc(Cl)ccc2c1=O` ? false (0)

What call does the record list for CC(=O)NC(CC(=O)NCC(c1ccco1)N(C)C)c1ccccc1 (stereo not drawn) ? true (1)

Others:
What call does the record list for `O=S(=O)(NCCSc1nnc(-c2ccco2)n1-c1ccccc1)c1ccccc1` ? false (0)

What call does the record list for `C/C(=N\N1CCN(C)CC1)c1ccc(Cl)c(Cl)c1` ? false (0)

What call does the record list for `COC1=C(C)C(O)=C(C(=O)/C=C/c2ccccc2)C(=O)C1(C)C` ? false (0)

====

System: TRPC4 beta (transient receptor potential cation channel C4), mouse
Experiment: TRPC4 cation channel opening, retest – cell-based, Fluo4 calcium, HEK293 TRPC4beta/mu-opioid, duplicates, 10 µM, confirmation (AID 2426);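 for activation: percent rise of integrated ratio over buffer wells lacking compound which define 0%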
Settings: Fluo4 calcium fluorescence, at 10 µM; active compounds read high
Active and inactive are the calls of the source.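 The calls were made as follows: active = fluorescence ratio normalized to control raised more than 50% in primary screen plus both repeat runs; inactive = the rest.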
REPORTED PROPERTY: activation

These solved cases illustrate the format of a correct answer.
I'm curious: which activation was measured for `Cc1cc(N2CCCCC2)nc(NCc2ccccc2)n1` tested on TRPC4 beta (transient receptor potential cation channel C4), mouse? 66% (active)

I'm curious: which activation was measured for `O=C(Nc1ccccc1N1CCN(C(=O)c2ccccc2)CC1)c1ccc(Br)o1` tested on TRPC4 beta (transient receptor potential cation channel C4), mouse? inactive

I'm curious: which activation was measured for CCC(=O)N1CCc2cc(S(=O)(=O)NCCN3CCCCC3CC)ccc21 (stereo unspecified) tested on TRPC4 beta (transient receptor potential cation channel C4), mouse? inactive

I'm curious: which activation was measured for `Cc1ccc(C(=O)NC(=S)Nc2c(C)ccc3nsnc23)cc1` tested on TRPC4 beta (transient receptor potential cation channel C4), mouse? inactive

I'm curious: which activation was measured for `Cn1c(SCCOc2ccccc2F)nc2ccccc2c1=O` tested on TRPC4 beta (transient receptor potential cation channel C4), mouse? inactive

I'm curious: which activation was measured for `O=[N+]([O-])c1c(Nc2cccc(O)c2)cc(Cl)c2nonc12` tested on TRPC4 beta (transient receptor potential cation channel C4), mouse? inactive

Others:
I'm curious: which activation was measured for `O=C(OCC(=O)N1CCOCC1)c1cccc(S(=O)(=O)N2CCCc3ccccc32)c1` tested on TRPC4 beta (transient receptor potential cation channel C4), mouse? inactive

I'm curious: which activation was measured for `CCCN(CCC(=O)Nc1cc(OC)cc(OC)c1)CC1CC1` tested on TRPC4 beta (transient receptor potential cation channel C4), mouse? 180% (active)

I'm curious: which activation was measured for `Clc1ccc(OCCn2ccnc2)c(Br)c1` tested on TRPC4 beta (transient receptor potential cation channel C4), mouse? inactive

I'm curious: which activation was measured for `CCCN(CCC)CCCNC(=O)CNC(=O)c1nn(-c2ccc(OC)cc2)c(=O)c2ccccc12` tested on TRPC4 beta (transient receptor potential cation channel C4), mouse? 65% (active)

I'm curious: which activation was measured for `CCN1CCN(c2ccc(S(=O)(=O)N3CCCCC3)cc2NC(=O)c2cc3ccccc3o2)CC1` tested on TRPC4 beta (transient receptor potential cation channel C4), mouse? inactive
